B1: Histone-lysine N-methyltransferase SETD2, residues 2382 to 2430; numbered along this chain, Q9BYW2 (parent)
chain: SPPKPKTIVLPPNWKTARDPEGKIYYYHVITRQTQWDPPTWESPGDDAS

# Variants of: B1
# protocol: abundance fitness (aPCA) (normalised: wild type 0, dead -1); higher = more abundant; growth selection in yeast, the domain comes from the species named
# details: Homo sapiens
property.measured: abundance fitness

1) N13F : 0.127
2) K23D : -0.493
3) R32L : -0.315
4) V9Y : -0.362
5) S43V : -0.045
6) A48F : -0.094
7) R18T : -0.112
8) E21D : -0.136
9) V29T : 0.145
10) Q35K : -0.351
11) V29R : -0.428

Source of measurements: the Human Domainome abundance scans (Beltran et al. 2025)
